Tested on: Fibroblast
Experiment: Multiplex assay against human fibroblast
Type: toxicity, cell-based
Settings: 24 h, 1 µM, compound concentration 1 uM, replicate 1
# binarize Population Mitotic Cells (%): threshold 50% inclusive, high side 1 (yes), low side 0 (no)

These solved cases illustrate the format of a correct answer.
Item CCc1nn(CCCN2CCN(c3cccc(Cl)c3)CC2)c(=O)n1CCOc1ccccc1.Cl [NEFAZODONE HYDROCHLORIDE] with Population Mitotic Cells (%) of 50% or above?
0 (no)

Item O=c1[nH]c2ccccc2n1C1CCN(Cc2ccc(-c3[nH]c4cc5ncnc5cc4nc3-c3ccccc3)cc2)CC1 with Population Mitotic Cells (%) of 50% or above?
1 (yes)

Item CCOC(=O)Nc1cc(-c2ccc(C)c(NS(C)(=O)=O)c2)nn2c(C)nnc12 with Population Mitotic Cells (%) of 50% or above?
0 (no)

Item COc1ccc(-c2ccc3ncc4c(c3c2)n(-c2ccc(N3CCNCC3)c(C(F)(F)F)c2)c(=O)n4C)cn1.O=C(O)/C=C\C(=O)O with Population Mitotic Cells (%) of 50% or above?
0 (no)

Item CNC(=O)Nc1ccc(-c2nc(N3CC4CCC(C3)O4)c3cnn(C4CCC5(CC4)OCCO5)c3n2)cc1 with Population Mitotic Cells (%) of 50% or above?
1 (yes)

New cases:
Item COc1ccccc1CN[C@H]1C2CCN(CC2)[C@H]1C(c1ccccc1)c1ccccc1 with Population Mitotic Cells (%) of 50% or above?
0 (no)

Item CNC(=O)Nc1ccc2c(c1)[C@@]1(CC2)OC(=O)N(CC(=O)N(Cc2ccc(F)cc2)[C@@H](C)C(F)(F)F)C1=O with Population Mitotic Cells (%) of 50% or above?
0 (no)
